pKd listing for selected binders.
experimental.target: T1, cyIL-18Rβ-HisAvi (cynomolgus monkey)
T1 construct: Soluble analyte in SPR; also called cyno IL-18Rβ; cynomolgus monkey IL-18Rβ
T1 chain: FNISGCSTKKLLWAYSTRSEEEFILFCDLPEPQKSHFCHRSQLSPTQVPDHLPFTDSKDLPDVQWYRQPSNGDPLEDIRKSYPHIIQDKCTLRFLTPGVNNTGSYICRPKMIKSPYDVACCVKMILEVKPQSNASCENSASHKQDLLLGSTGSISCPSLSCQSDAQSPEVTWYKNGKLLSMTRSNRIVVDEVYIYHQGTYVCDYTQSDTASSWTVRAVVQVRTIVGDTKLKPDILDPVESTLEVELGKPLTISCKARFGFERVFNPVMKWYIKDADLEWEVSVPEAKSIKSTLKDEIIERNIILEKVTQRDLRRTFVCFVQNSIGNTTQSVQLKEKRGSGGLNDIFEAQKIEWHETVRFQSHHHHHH
measurement.protocol: SPR T200, mAb on anti-hFc, 37C, pH 6
By convention, pKd is the negative base-10 log of a molar concentration.

Consider the following illustrative entries.
>  <binder>
P21-V1 (antibody, human IgG1, kappa, V domains shown, Variant of P21) VH: QVQLQESGPGLVKPSETLSLTCTVSGGSISNYYWTWIRQPPGKGLEWIGYISDSGSTNYNPSLKSRVTISVDTSKNQFSLKLSSVTAADTAVYYCARETIVVRGFYFYVMDVWGQGTTVTVSS VL: AIQLTQSPSSLSASVGDRVTITCRASQGISSALAWYQQKPGKAPKLLIYEASNWESGVPSRFSGSGSGTDFTLTISSLQPEDFATYYCQQFNSYPWTFGQGTKVEIKR

>  <pKd>
7.89

$$$$
>  <binder>
P21 (antibody, human IgG1, kappa, V domains shown, Human IgG) VH: QVQLQQSGPGLVKPSETLSLTCTVSGGSISNYYWTWIRQPPGKGLEWIGYISDSGSTNYNPSLKSRVTISVDTSKNQFSLKLSSVTAADTAVYYCARETIVVRGFYFYVMDVWGQGTTVTVSS VL: AIQLTQSPSSLSASVGDRVTITCRASQGISSALAWYQQRPGKAPKLLIYDASNWESGVPSRFSGSGSGTDFTLTISSLQPEDFATYYCQQFNSYPWTFGQGTKVEIKR

>  <pKd>
7.96

$$$$

Now take the following binder into account.
Suppose we examine the binder P20-V3 (antibody, human IgG1, kappa, V domains shown, Variant of P20) VH: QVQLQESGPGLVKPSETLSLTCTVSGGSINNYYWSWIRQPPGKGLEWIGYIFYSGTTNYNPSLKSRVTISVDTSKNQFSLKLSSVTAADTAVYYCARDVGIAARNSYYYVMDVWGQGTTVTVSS VL: AIQLTQSPSSLSASVGDRVTITCRASQGISSALAWYQQKPGKAPKFLIYGASSLESGVPSRFSGSGSGTDFTLTISSLQPEDFATYYCQQFNSYPITFGQGTRLEIKR ; what pKd value has been reported?
8.62

Where do these numbers come from? They come from patent US20250230251A1.
